FYI, the data here is from patent US8759535B2.

I'd be grateful if you could share measured fold induction at 5 µM for these entries.
system: HMOX1; assay: HMOX1 Protein Assay (immunostaining of HO-1 in NHLF cells, GE InCell 1000); type: cell-based; conditions: Homo sapiens, fold change above DMSO treated cells, 5 μM compound, 16 h

Lab request: please report fold induction at 5 µM under test system HMOX1 for CN(C)CCNC(=O)c1ccc2c(c1)nc(Nc1nc3ccc(OC(F)(F)F)cc3s1)n2C [Example 82]
17

// query: Cn1c(Nc2nc3ccc(OC(F)(F)F)cc3s2)nc2cc(C(=O)NCCN3CCCC3=O)ccc21 [Example 329]
52.2

// query: COc1cc2c(cc1C(=O)O)nc(Nc1nc3ccc(OC(F)(F)F)cc3s1)n2C [Example 62]
20.3

// query: COCC1CCN(C(=O)CNC(=O)c2ccc3c(c2)nc(Nc2nc4ccc(OC(F)(F)F)cc4s2)n3C)CC1 [Example 447]
58.4

* * *

Test system: HMOX1
Assay: HMOX1 Protein Assay (immunostaining of HO-1 in NHLF cells, GE InCell 1000)
Type: cell-based
Conditions: Homo sapiens, fold change above DMSO treated cells, 5 μM compound, 16 h
Description: Cell Culture. Normal Human Fibroblast (NHLF), were obtained from Lonza. Cultures of cells were maintained in Fibroblast Growth Medium (FGM-2) medium supplemented with 2% fetal bovine serum (FBS), Fibroblast Growth Factor (hFGF-B) 0.5 mL, Insulin 0.5 mL, gentamicin/amphotericin-B 0.5 mL at 37° C. in a humidified atmosphere of 5% CO2. […] HMOX1 Protein Assay. […] Plate was washed 5× with 1×PBS and read at Hoechst Ex.360 Em. […] Results analyzed using GE InCell Analyzer software. […]
Where a name gives a salt, the structure may show the parent alone.
I'd be grateful if you could share measured fold induction at 5 µM for these entries.
Enter the number alone.

Lab request: please report fold induction at 5 µM under test system HMOX1 for C[C@H](O)CNC(=O)c1ccc2c(c1)nc(Nc1nc3ccc(OC(F)(F)F)cc3s1)n2C
11.1

// query: Cn1c(Nc2nc3ccc(Cl)cc3s2)nc2cc(C(=O)NC[C@H]3CC[C@H](CO)CC3)ccc21
49.3

// query: Cc1nc(-c2ccc3nc(Nc4nc5cc(OC(F)(F)F)ccc5s4)n(C)c3c2)n[nH]1
12

// query: Cn1c(Nc2nc3ccc(OC(F)(F)F)cc3s2)nc2cc(C(=O)NCCOCC(C)(C)O)ccc21
33.1

// query: Cn1c(Nc2nc3ccc(OC(F)(F)F)cc3s2)nc2cc(C(=O)NCc3ccco3)ccc21
15.8

// query: CCn1c(Nc2nc3ccc(OC(F)(F)F)cc3s2)nc2cc(C(=O)O)ccc21
27.1

// query: CN(C)C(=O)CNC(=O)c1ccc2c(c1)nc(Nc1nc3ccc(Cl)cc3s1)n2C
45.9

// query: Cn1c(Nc2nc3ccc(OC(F)(F)F)cc3s2)nc2cc(-c3ncc[nH]3)ccc21
11.4

// query: CC(O)CNC(=O)c1cc2nc(Nc3nc4ccc(OC(F)(F)F)cc4s3)n(C)c2cc1F (stereo not shown)
39.8

// query: CN(C(=O)CNC(=O)c1ccc2c(c1)nc(Nc1nc3ccc(Cl)cc3s1)n2C)C1CCNC1 (stereo not shown) [Example 394, hydrochloride]
37.6

// query: CC(O)CNC(=O)c1ccc2c(c1)nc(Nc1nc3ccc(OC(F)(F)F)cc3s1)n2C (stereo not shown)
19.6

// query: Cn1c(Nc2nc3ccc(OC(F)(F)F)cc3s2)nc2cc(C(=O)NCC3CN(C(=O)OC(C)(C)C)CCO3)ccc21 (stereo not shown)
4.5

// query: CCn1c(Nc2nc3ccc(Oc4cccnc4)cc3s2)nc2cc(C(=O)NCCOC)ccc21
33.8

// query: CCOCCNC(=O)c1ccc2c(c1)nc(Nc1nc3ccc(Cl)cc3s1)n2C
23.7

// query: CN(C)CCOCCNC(=O)c1ccc2c(c1)nc(Nc1nc3ccc(OC(F)(F)F)cc3s1)n2C
25.3

// query: CCn1c(Nc2nc3ccc(OC(F)(F)F)cc3s2)nc2cc(C(=O)NCC(=O)N(C)C)ccc21
20.2
